system: INS-1E rat beta cells, no cytokines, CellTiter-Glo ATP, 48 h; experiment: cytokine-free beta-cell viability effect – INS-1E rat cells, ATP luminescence, cherry pick, counter-screen for beta-cell apoptosis protection project, dose response (AID 463229)
reported endpoint: AC50

                                    compound                               target_desc    result
 0  CC(=O)NC(c1ccccc1)c1cc(Cl)c2cccnc2c1O (stereo unspecified)  INS-1E rat beta cells, no cytokines, CellTiter-Glo ATP, 48 h   6.26 µM
 1  CCN(CC)c1ccc(/C=N/NC(=O)c2cccc(S(=O)(=O)Nc3ccccc3OC)c2)c(O)c1  INS-1E rat beta cells, no cytokines, CellTiter-Glo ATP, 48 h   1.62 µM
 2  CCCOc1nc2c(c(=O)n(C)c(=O)n2C)n1Cc1cccc2ccccc12  INS-1E rat beta cells, no cytokines, CellTiter-Glo ATP, 48 h   14.4 µM
 3  CN(C)c1cc[n+](CC(=O)Nc2ccc(Oc3ccccc3)cc2)cc1  INS-1E rat beta cells, no cytokines, CellTiter-Glo ATP, 48 h   2.36 µM
 4             COc1cccc(COc2cc3ccccc3nc2C)c1  INS-1E rat beta cells, no cytokines, CellTiter-Glo ATP, 48 h   3.51 µM
 5  COc1ccc2nc(Nc3nc(CSc4nc5ccccc5[nH]4)cc(=O)[nH]3)nc(C)c2c1  INS-1E rat beta cells, no cytokines, CellTiter-Glo ATP, 48 h   7.05 µM
 6  CCOC(=O)/C(=C\c1ccc(OC(F)F)cc1)C1=Nn2c(nnc2-c2ccc(Cl)cc2)SC1  INS-1E rat beta cells, no cytokines, CellTiter-Glo ATP, 48 h    5.5 µM
 7   N#CC(C#N)=C(Nc1ccc(F)cc1)SCc1cccc(Br)c1  INS-1E rat beta cells, no cytokines, CellTiter-Glo ATP, 48 h   3.02 µM
 8  CCOc1ccc(OCc2ccc(C(=O)NN=Cc3ccc[nH]3)cc2)cc1  INS-1E rat beta cells, no cytokines, CellTiter-Glo ATP, 48 h  0.739 µM
 9                     Cc1nnc(N=c2ssnc2Cl)o1  INS-1E rat beta cells, no cytokines, CellTiter-Glo ATP, 48 h   13.6 µM
10  CN(c1ccccc1)S(=O)(=O)c1ccc(NC(=O)c2nc(S(C)(=O)=O)ncc2Cl)cc1  INS-1E rat beta cells, no cytokines, CellTiter-Glo ATP, 48 h   7.32 µM

* * *

tested on: INS-1E rat beta cells, no cytokines, CellTiter-Glo ATP, 48 h; test: cytokine-free beta-cell viability effect – INS-1E rat cells, ATP luminescence, cherry pick, counter-screen for beta-cell apoptosis protection project, dose response (AID 463229)
Catalogue of AC50 readings, one per entry.
reported endpoint: AC50

In [3]: df
Out[3]:
                                    compound  reported_endpoint    result
 0  COc1cccc(C(=O)Oc2c(CN3CCOCC3)cc(Cl)c3cccnc23)c1               AC50   14.3 µM
 1  C=CCSc1nc2ccccc2n1C(=O)/C=C/c1ccc(OC)c(OC)c1               AC50     11 µM
 2  COc1cccc(/C=N/NC(=O)c2cc3c(OC)ccc(OC)c3[nH]2)c1O               AC50   10.7 µM
 3  CC(=O)Nc1ccc(NC2=C/C(=N/S(=O)(=O)c3cccs3)c3ccccc3C2=O)cc1               AC50   7.66 µM
 4  Cc1ccc(NC(=O)C2=C(c3ccccc3)S(=O)(=O)CCS2(=O)=O)cc1               AC50   12.6 µM
 5  COC(=O)C1CCCCN1C(=O)c1cc(COc2cccc3cnccc23)on1 (stereo not drawn)               AC50   7.11 µM
 6  CC(C)(C)c1ccc(OCc2ccc(C(=O)N/N=C/c3ccc(O)c(O)c3)cc2)cc1               AC50   8.35 µM
 7  CC(C)(C)n1nnnc1C(c1ccc(F)cc1)N(Cc1ccc(F)cc1)Cc1ccco1 (stereo not drawn)               AC50   9.25 µM
 8  CN(C)S(=O)(=O)c1cccc(CSCc2cccc(S(=O)(=O)N(C)C)c2)c1               AC50   7.78 µM
 9  CCc1ccc2c(c1)C1(C(=O)N2)N2CCCC2C(C(=O)c2ccc3ccccc3c2)C12C(=O)Nc1ccccc12 (stereo not drawn)               AC50   7.76 µM
10   COc1cccc(/C=N/Nc2ncc(C(F)(F)F)cc2Cl)c1O               AC50   4.26 µM
11   Oc1c(CN2CCOCC2)cc(COCc2ccccc2)c2cccnc12               AC50   8.19 µM
12       Cc1[nH]c(N=Nc2ccccc2)nc1N=Nc1ccccc1               AC50   8.16 µM
13  O=C(Nc1cc(Sc2ccccn2)cc([N+](=O)[O-])c1)c1cccc(F)c1               AC50   8.51 µM
14  CS(=O)(=O)c1ncc(Cl)c(C(=O)Nc2ccc(OC(F)F)cc2)n1               AC50   11.6 µM
15  Cc1ccc(S(=O)(=O)N2CCN(c3ncnc4ccccc34)CC2)cc1               AC50   6.28 µM
16  O=S(=O)(c1cccs1)N1CCN(CC(O)COc2cc(Cl)ccc2Cl)CC1 (stereo not drawn)               AC50   13.3 µM
17     Cc1cc(C)n(-c2nc3ccccc3c(=O)n2OCC#N)n1               AC50   12.4 µM
18  CCCOc1ccc(/C=N/Nc2cc(N3CCOCC3)ncn2)c(O)c1               AC50   8.02 µM
19  O=C(N/N=C/c1ccc([N+](=O)[O-])o1)c1cc2ccccc2o1               AC50   6.22 µM
20         O=C1C=C(Nc2ccc(F)cc2)c2ccccc2C1=O               AC50   7.19 µM
21     O=C(NCc1cccnc1)c1ccc([N+](=O)[O-])cc1               AC50   5.86 µM
22  Cc1ccc2[nH]c(C(=O)N/N=C/c3ccccc3O)c(C)c2c1               AC50   2.33 µM
23  CCOC(=O)N1CCN(c2ncnc3c2[nH]c2ccc(F)cc23)CC1               AC50   6.43 µM
24  O=C(Nc1ccc(-c2noc(-c3cccs3)n2)cc1)c1cccnc1               AC50     13 µM
25  CNC1=C(N(C(C)=O)c2ccc(Br)cc2)C(=O)c2ccccc2C1=O               AC50  0.943 µM
26  Cc1cc(C)n(-c2nc(Nc3ccccc3C(F)(F)F)nc(-n3nc(C)cc3C)n2)n1               AC50   6.87 µM
27  COc1cccc(/C=N/Nc2ncnc3scc(-c4ccccc4)c23)c1O               AC50   2.02 µM
28  Cc1cc(N)c2cc(NC(=O)/C=C/c3ccccc3Cl)ccc2n1               AC50   14.2 µM
29                  CCCCCCCCCCCCn1ccc(=N)cc1               AC50  0.515 µM
30  CCOc1cc(/C=C2\CCC/C(=C\c3cc(Cl)c(O)c(OCC)c3)C2=O)cc(Cl)c1O               AC50   7.28 µM
31  O=C(c1ccc([N+](=O)[O-])s1)N1CCN(c2cccc(Cl)c2)CC1               AC50   19.3 µM
32  CC1(C)CC(N2CCN(Cc3ccccc3)CC2)=CC(=[N+]2CCCCC2)C1               AC50   2.55 µM
33    COc1ccc2nc(C)cc(N/N=C/c3ccc(F)cc3)c2c1               AC50   7.11 µM
34  C#CCn1c(=NC(=O)c2ccc(S(=O)(=O)N3CCc4ccccc4C3)cc2)sc2cc(S(N)(=O)=O)ccc21               AC50   3.64 µM
35    Nc1nc(-c2ccccn2)nc(N)c1Cc1ccc(Cl)cc1Cl               AC50   11.9 µM
36       COc1ccc(O)c(/C=N/NC(=S)Nc2cccnc2)c1               AC50   15.6 µM
37  COc1ccc(Cc2nnc(N/N=C/c3ccccc3O)[nH]c2=O)cc1OC               AC50   4.32 µM
38  O=[N+]([O-])c1ccc(-[n+]2ccc3ccccc3c2)c([N+](=O)[O-])c1               AC50   7.89 µM
39        Cc1occc1C(=O)N/N=C/c1ccc2c(c1)OCO2               AC50   5.48 µM
40       O=C(Oc1c(Cl)cc(Cl)c2cccnc12)c1cccs1               AC50     15 µM
41  COc1ccc(C(C)NCCC(c2ccc(OC(C)C)cc2)c2ccccc2OC)cc1 (stereo not drawn)               AC50   7.99 µM
42  Cc1c(C(=O)N/N=C/c2c(O)ccc3ccccc23)nnn1-c1nonc1N               AC50   2.18 µM
